biological target: cAMP and cAMP-inhibited cGMP 3',5'-cyclic phosphodiesterase 10A (Homo sapiens, UniProt Q9Y233)
Sequence (Q9Y233 whole entry): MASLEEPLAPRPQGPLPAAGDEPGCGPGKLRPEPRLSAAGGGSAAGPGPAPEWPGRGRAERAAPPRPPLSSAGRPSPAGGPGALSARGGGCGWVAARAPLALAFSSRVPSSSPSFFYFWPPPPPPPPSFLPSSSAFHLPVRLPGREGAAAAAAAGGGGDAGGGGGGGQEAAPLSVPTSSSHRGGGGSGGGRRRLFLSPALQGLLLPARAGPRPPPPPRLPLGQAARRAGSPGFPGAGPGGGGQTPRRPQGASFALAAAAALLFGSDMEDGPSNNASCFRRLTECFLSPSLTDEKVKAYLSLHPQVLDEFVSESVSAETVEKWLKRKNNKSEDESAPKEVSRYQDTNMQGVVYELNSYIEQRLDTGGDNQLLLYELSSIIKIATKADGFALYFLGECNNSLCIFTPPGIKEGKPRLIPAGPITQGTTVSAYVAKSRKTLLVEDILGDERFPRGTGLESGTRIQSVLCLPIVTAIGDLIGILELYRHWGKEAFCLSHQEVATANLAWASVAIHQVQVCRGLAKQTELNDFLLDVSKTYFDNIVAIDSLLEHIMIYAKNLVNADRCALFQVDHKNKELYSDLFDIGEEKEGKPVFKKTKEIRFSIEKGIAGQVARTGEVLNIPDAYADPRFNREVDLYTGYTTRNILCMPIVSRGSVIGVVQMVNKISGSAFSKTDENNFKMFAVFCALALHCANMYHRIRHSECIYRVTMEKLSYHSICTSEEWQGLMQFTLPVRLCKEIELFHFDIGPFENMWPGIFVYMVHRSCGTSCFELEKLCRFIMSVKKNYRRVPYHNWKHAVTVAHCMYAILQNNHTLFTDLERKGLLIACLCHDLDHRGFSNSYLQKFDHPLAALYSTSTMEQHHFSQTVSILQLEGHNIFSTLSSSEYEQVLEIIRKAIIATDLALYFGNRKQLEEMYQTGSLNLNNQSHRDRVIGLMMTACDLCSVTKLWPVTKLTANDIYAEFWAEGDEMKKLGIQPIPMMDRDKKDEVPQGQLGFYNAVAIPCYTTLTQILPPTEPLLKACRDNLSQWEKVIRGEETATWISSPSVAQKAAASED
endpoint_label: IC50 (nM)
Numbers only, in nM.

Name the recorded IC50 for `COc1cc2ncnc(N3CC[C@@H](Oc4cnc5ccccc5n4)C3)c2cc1OC` . 6

====

biological target: cAMP and cAMP-inhibited cGMP 3',5'-cyclic phosphodiesterase 10A (Homo sapiens)
endpoint_label: IC50

Name the recorded IC50 for `CCCCOc1ccc(F)c(-c2nc(C)c3nnc4ccc(OCCF)nc4n23)c1` . > 1 µM

====

biological target: cGMP-specific 3',5'-cyclic phosphodiesterase (Homo sapiens)
endpoint_label: pIC50
Give bare numbers, as −log10 of the molar value.

Name the recorded pIC50 for `CCN1CC(=O)N2[C@H](c3ccc(Cl)cc3)c3[nH]c4ccccc4c3C[C@@H]2C1=O` . 8.52

====

target: Dual specificity calcium/calmodulin-dependent 3',5'-cyclic nucleotide phosphodiesterase 1B (Homo sapiens, UniProt Q01064)
Sequence (Q01064 whole entry): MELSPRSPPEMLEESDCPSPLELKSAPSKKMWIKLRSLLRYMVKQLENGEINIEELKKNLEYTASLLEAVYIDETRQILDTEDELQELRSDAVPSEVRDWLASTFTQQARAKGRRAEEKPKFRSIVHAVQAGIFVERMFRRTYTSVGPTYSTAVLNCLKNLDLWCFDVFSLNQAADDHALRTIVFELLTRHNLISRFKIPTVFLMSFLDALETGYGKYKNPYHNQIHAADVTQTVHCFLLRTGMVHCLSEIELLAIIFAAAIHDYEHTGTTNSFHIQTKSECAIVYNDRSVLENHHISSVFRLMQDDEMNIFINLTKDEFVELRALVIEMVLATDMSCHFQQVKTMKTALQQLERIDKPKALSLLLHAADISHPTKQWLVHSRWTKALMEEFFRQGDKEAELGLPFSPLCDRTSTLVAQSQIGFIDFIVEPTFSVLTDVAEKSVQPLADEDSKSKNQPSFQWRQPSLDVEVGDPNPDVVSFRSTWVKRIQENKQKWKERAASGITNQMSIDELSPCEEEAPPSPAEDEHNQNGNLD
Record form. Attribute: IC50. Fill in for each entry.
Answers are plain numbers, in nM.

| molecule | quantitative_result |
| --- | --- |
| CCCN(CCC)c1ncnc2c(OC)c(OC)c(OC)cc12 | 219 |

Name the recorded IC50 for COc1cc2ncnc(C(C)c3cccc(Cl)c3)c2cc1OC (configuration not stated) . 130

====

biological target: High affinity cGMP-specific 3',5'-cyclic phosphodiesterase 9A (Homo sapiens, UniProt O76083)
Sequence (O76083 whole entry): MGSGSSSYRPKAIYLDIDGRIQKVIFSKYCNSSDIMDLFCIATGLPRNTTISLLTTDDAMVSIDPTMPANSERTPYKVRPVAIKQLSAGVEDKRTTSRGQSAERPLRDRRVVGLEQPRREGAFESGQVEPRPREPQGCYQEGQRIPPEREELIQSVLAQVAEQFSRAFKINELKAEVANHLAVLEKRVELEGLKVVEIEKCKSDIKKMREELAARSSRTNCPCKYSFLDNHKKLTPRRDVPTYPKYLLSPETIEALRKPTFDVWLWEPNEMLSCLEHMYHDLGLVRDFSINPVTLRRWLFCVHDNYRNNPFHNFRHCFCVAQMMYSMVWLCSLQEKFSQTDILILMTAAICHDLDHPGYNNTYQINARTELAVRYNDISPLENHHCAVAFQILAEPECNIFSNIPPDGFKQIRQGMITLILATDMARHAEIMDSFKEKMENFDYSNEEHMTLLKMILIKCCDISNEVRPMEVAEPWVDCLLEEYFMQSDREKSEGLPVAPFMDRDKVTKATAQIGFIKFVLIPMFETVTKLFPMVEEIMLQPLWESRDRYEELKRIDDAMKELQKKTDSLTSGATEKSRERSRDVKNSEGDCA
endpoint_label: IC50

Name the recorded IC50 for `C[C@@H](Nc1nc2c(cnn2C2CCCC2)c(=O)n1Cc1ccccc1)c1ccc(Cl)cc1` . > 10 µM
